Experiment: DHB dehydrogenase activity of cytosolic enzymes (DHB-dependent reduction of NAD+)
Format: biochemical
Conditions: activity measured at 50 mM DHB; Table 4
REPORTED_ENDPOINT: Max. specific activity, DHB (µmol/mg/min)

MOLECULE: Ec-MdhR81A M85E I12V: E. coli malate dehydrogenase mutant R81A M85E I12V, SEQ ID No. 166 (protein, listed as Escherichia coli) MKVAVLGAAGGVGQALALLLKTQLPSGSELSLYDIAPVTPGVAVDLSHIPTAVKIKGFSGEDATPALEGADVVLISAGVAAKPGEDRSDLFNVNAGIVKNLVQQVAKTCPKACIGIITNPVNTTVAIAAEVLKKAGVYDKNKLFGVTTLDIIRSNTFVAELKGKQPGEVEVPVIGGHSGVTILPLLSQVPGVSFTEQEVADLTKRIQNAGTEVVEAKAGGGSATLSMGQAAARFGLSLVRALQGEQGVVECAYVEGDGQYARFFSQPLLLGKNGVEERKSIGTLSAFEQNALEGMLDTLKKDIALGEEFVNK
NUMERIC_READOUT: 10.3

All figures here come from patent US9605283B2.
